// data source = ChEMBL document CHEMBL4400522

Tested on: Chikungunya virus
experimentNotes: Antiviral activity against Chikungunya virus 899 infected in African green monkey Vero A cells assessed as inhibition of viral RNA replication by RT-qPCR analysis
Assay type: functional, organism-based
conditionDescription: Chikungunya virus, 899, Vero
parameterMeasured: EC50

Query: Entry Nc1nc(SCc2cc3ccccc3oc2=O)c2nc(SCc3cccc4ccccc34)n([C@@H]3O[C@H](CO)[C@@H](O)[C@H]3O)c2n1 has what EC50?
Reply: > 159 µM

Query: // query: CSc1nc2c(SCc3cc4cc(C)ccc4oc3=O)nc(N)nc2n1[C@@H]1O[C@H](CO)[C@@H](O)[C@H]1O
Reply: > 194 µM

Query: // query: Nc1nc(SCc2cc3cc(Br)ccc3oc2=O)c2nc(SCc3cc4cc(Br)ccc4oc3=O)n([C@@H]3O[C@H](CO)[C@@H](O)[C@H]3O)c2n1
Reply: > 124 µM

Query: // query: Nc1nc2c(nc(SCc3cccc4ccccc34)n2[C@@H]2O[C@H](CO)[C@@H](O)[C@H]2O)c(=S)[nH]1
Reply: > 212 µM

Query: // query: Nc1nc(SCc2cc3cc(F)ccc3oc2=O)c2nc(SCc3cc4cc(F)ccc4oc3=O)n([C@@H]3O[C@H](CO)[C@@H](O)[C@H]3O)c2n1
Reply: > 146 µM

Query: // query: Cc1ccc2oc(=O)c(CSc3nc(N)nc4c3nc(SCc3cc5cc(C)ccc5oc3=O)n4[C@@H]3O[C@H](CO)[C@@H](O)[C@H]3O)cc2c1
Reply: 40.9 µM

Query: // query: CSCc1cc2ccccc2oc1=O
Reply: > 485 µM

* * *

experimentNotes: Cytotoxicity against African green monkey Vero A cells by MTS assay
Assay type: cell-based
conditionDescription: chlorocebus aethiops
parameterMeasured: CC50 (µM)
Answer format: numeric, µM implied, no suffix.

Query: Entry COc1cccc2cc(CSc3nc(N)nc4c3nc(SCc3cc5cccc(OC)c5oc3=O)n4[C@@H]3O[C@H](CO)[C@@H](O)[C@H]3O)c(=O)oc12 has what CC50?
Reply: 96.5

Query: // query: Cc1ccc2oc(=O)c(CSc3nc(N)nc4c3nc(SCc3cc5cc(C)ccc5oc3=O)n4[C@@H]3O[C@H](CO)[C@@H](O)[C@H]3O)cc2c1
Reply: 81.3

* * *

experimentNotes: Selectivity index, ratio of CC50 for African green monkey Vero cells to EC50 for chikungunya virus infected in African green monkey Vero E6 cells
Format: toxicity, Vero C1008
conditionDescription: read-out: Ratio CC50/EC50
parameterMeasured: selectivity ratio
Just the number, please.

Query: Entry C=C(C)[C@@]12OC3(c4ccccc4)O[C@@H]1[C@@H]1[C@@H]4O[C@]4(CO)[C@@H](O)[C@@]4(O)[C@@H](C=C(C)[C@@H]4O)[C@@]1(O3)[C@H](C)[C@@H]2OC(=O)C(C)CCCCCCCC (stereo partly specified) has what selectivity ratio?
Reply: 71.7

* * *

experimentNotes: Lipophilicity, log P of the compound
Assay type: physicochemical
conditionDescription: octanol/water
Please assign condition not met whenever logP is at or above 3, and condition met whenever it is below.

Query: Input Cc1ccc2oc(=O)c(CSc3nc(N)nc4c3nc(SCc3cc5cc(C)ccc5oc3=O)n4[C@@H]3O[C@H](CO)[C@@H](O)[C@H]3O)cc2c1 ; condition: logP strictly below 3. Does it hold?
Reply: condition not met

Query: // query: COc1ccc2oc(=O)c(CSc3nc(N)nc4c3nc(SCc3cccc5ccccc35)n4[C@@H]3O[C@H](CO)[C@@H](O)[C@H]3O)cc2c1
Reply: condition not met

Query: // query: COc1ccc2oc(=O)c(CSc3nc(N)nc4c3nc(SCc3ccccc3)n4[C@@H]3O[C@H](CO)[C@@H](O)[C@H]3O)cc2c1
Reply: condition met

Query: // query: Nc1nc2c(nc(S)n2[C@@H]2O[C@H](CO)[C@@H](O)[C@H]2O)c(=S)[nH]1
Reply: condition met
